Listing of entries alongside the reported pIC50.
Target protein (sequence): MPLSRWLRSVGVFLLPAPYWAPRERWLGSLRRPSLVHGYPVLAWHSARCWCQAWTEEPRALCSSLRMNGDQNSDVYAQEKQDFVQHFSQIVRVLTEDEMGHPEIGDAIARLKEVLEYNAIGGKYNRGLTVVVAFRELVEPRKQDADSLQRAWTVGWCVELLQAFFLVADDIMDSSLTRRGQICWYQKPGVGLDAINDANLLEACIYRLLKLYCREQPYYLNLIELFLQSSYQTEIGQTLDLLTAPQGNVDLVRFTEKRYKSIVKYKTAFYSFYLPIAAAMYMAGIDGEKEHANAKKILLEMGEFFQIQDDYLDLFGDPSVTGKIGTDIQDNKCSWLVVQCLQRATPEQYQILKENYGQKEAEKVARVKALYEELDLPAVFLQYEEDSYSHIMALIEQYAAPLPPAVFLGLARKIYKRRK
Where a name gives a salt, the structure may show the parent alone.
Bear in mind: pIC50 is minus log10 of a mol/L concentration; give just that figure.

O=P(O)(O)C1(P(=O)(O)O)C[C@@H]2CCCN[C@@H]2C1 [1R,6S Isomer, hydrochloride salt] : 7.82

Lookup: Fill in: pIC50 of O=P(O)(O)C1(P(=O)(O)O)C[C@H]2CCCN[C@H]2C1 [1S,6R Isomer] is ___
Found: 6.44
